biological target: hGR (Homo sapiens); construct: expressed in transfected cells; host or cells: HEK 293T; assay: APRn selectivity: transactivation in HEK293T cells transiently expressing hGR; format: cell-based; conditions: HEK-293T, read-out: GR Agonist efficacy (%)
Sequence (P04150 whole entry): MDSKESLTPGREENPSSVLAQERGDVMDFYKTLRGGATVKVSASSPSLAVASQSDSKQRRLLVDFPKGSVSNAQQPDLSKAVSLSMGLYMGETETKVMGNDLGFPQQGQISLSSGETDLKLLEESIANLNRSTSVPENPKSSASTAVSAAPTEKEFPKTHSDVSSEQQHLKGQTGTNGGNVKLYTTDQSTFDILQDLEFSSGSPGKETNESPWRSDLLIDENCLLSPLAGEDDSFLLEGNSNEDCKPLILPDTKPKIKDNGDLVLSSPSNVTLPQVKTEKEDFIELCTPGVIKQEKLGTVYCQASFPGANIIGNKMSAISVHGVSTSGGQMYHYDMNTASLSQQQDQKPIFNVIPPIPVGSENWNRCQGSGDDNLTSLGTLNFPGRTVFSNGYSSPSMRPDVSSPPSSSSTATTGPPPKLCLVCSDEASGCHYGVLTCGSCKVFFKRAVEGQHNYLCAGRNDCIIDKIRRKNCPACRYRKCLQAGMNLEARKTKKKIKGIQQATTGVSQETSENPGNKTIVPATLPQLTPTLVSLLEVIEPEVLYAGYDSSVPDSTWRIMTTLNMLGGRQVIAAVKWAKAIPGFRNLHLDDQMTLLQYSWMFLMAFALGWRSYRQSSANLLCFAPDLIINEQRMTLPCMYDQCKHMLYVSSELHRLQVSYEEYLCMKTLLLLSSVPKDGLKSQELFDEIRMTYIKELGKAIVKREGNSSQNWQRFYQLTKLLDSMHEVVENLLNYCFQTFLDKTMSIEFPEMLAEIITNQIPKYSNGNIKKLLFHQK
Catalogue of Emax values
Dear colleague, please return just the value in %, with no unit written.

C[C@@H]1CCC2C3CC=C4C[C@@H](F)CC[C@]4(C)C3CC[C@]2(C)[C@H]1F (stereo partly shown) = 0.26

Problem: Tell me the measured Emax of CC#C[C@]1(O)CCC2C3CC=C4C[C@@H](F)CC[C@@H]4C3CC[C@@]21C (stereo partly shown) , please.
Result: 0.29

Problem: Same read-out for C[C@]12CCC3C(CC=C4C[C@@H](F)CC[C@@H]43)C1CCC2=O (stereo partly shown) ?
Result: 0.16

Problem: Same read-out for CC#C[C@]1(O)CCC2C3CC[C@H]4C[C@@H](F)CC[C@]4(C)C3CC[C@@]21C (stereo partly shown) ?
Result: 0.17

* * *

Biological target: hPRB (Homo sapiens)
Sequence (P06401 1-933): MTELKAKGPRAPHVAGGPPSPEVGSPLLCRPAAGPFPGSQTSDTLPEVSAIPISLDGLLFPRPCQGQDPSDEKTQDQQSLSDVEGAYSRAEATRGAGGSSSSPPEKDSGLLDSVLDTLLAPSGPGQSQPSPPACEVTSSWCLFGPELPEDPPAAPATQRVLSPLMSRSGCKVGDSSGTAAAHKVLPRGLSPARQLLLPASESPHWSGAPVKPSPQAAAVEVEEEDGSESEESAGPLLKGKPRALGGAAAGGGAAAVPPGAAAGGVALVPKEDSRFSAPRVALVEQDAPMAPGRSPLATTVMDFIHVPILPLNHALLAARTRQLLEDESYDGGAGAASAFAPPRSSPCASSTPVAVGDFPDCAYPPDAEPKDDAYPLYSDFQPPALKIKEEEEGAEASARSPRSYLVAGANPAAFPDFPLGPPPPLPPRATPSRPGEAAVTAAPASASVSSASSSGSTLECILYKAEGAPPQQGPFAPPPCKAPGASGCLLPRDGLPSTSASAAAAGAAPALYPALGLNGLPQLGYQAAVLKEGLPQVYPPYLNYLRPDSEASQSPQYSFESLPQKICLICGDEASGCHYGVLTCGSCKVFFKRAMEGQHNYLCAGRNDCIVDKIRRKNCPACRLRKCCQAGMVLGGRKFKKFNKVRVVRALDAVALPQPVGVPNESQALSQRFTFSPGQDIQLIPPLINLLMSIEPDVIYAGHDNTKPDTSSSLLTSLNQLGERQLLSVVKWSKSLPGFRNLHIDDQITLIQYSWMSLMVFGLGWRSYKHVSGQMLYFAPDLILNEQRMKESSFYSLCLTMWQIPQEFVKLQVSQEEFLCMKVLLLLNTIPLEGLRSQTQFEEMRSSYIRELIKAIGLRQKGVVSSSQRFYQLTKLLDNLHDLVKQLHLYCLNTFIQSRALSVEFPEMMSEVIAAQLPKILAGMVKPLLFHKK
Experiment: PR transactivation assay (GRE2-Luc) in MDA-MB-231 iPRAB cells conditionally expressing hPRB
Format: cell-based
Set-up: expressed in transfected cells
Details: dose response curves, MDA-MB-231 iPRAB cells expressing hPRB, FIG. 9; read-out: IC50
Protocol: Establishment of the MDA-MB-231 iPRAB cells. […] The cells were cultured in 96-well plates in RPMI 1640 medium with L-glutamine without phenol red, enriched with 5% DCC serum containing inducer ligand RSL1 (500 nM) or Dox (1 μg/ml) for PRA or PRB expression during 24 h. […] Luciferase and β-galactosidase activity or total protein contents (BCA assay) were determined using a luminometer (Victor 378, Perkin Elmer). […]
property.label: IC50

Problem: Tell me the measured IC50 of CC(=O)[C@H]1CC[C@H]2[C@@H]3CC=C4C[C@@H](F)CC[C@]4(C)[C@H]3CC[C@]12C [APR-16, 3β-Fluoropregn-5-en-20-one] , please.
Result: ~0.5 µM
